# Tested on: M14
# assay-details: NCI tumour cell line growth inhibition, 48 h
Calls of active or inactive are those of the source. No stated cut-off is given here; in the data, active = GI50 up to about 1.1 µM and inactive = higher.
Attribute: GI50

1. N#CC(C#N)=C1CCCCc2ccc([N+](=O)[O-])cc21	> 100 µM (inactive)
2. O=C(c1c(F)c(F)c(F)c(F)c1F)n1c(O)nc2ccccc21	9.33 µM (inactive)
3. OCCNCCOc1ccc(/C(=C(/Cl)c2ccccc2)c2ccccc2)cc1	1.87 µM (inactive)

Short answer for CC(C)=CCC1=C(OCC(=O)O)C(=O)c2ccccc2C1=O : GI50 was 33 µM (inactive)

* * *

# System: HCC 2998
# assay-details: NCI tumour cell line growth inhibition, 48 h
Activity calls are given as the source filed them. Rule as the data show it: active = GI50 up to about 1.1 µM and inactive = higher.
Hello, when you answer, please use one of the following outcomes: YES (active), NO (inactive)

Known results for compounds:
1. CC(C)OC(=O)[C@H]1ON2O[C@H](O[C@@H]3CCCC[C@H]3c3ccccc3)C([Si](C)(C)c3ccccc3)[C@H]3OC(=O)[C@@H]1C32 (stereo partly specified)	NO
2. C=C[C@]1(C)CC[C@]2(C)C(CC[C@@]3(C)C2C[C@H](O)[C@H](O)[C@@]3(C)O)C1 (stereo partly specified)	NO
3. Cc1ccc(-c2nc(N/N=C/C=C/c3ccccc3)c3ccccc3n2)cc1	NO
4. CC(NC(=O)OCc1ccccc1)NC(=O)OC(C)(C)C (stereo unspecified)	NO
5. N#Cc1c(-c2ccccc2)c(/C=N/c2ccc(F)cc2)c(=O)n2c1[nH]c1ccccc12	NO

State the result this test recorded for CCOC1OC(C)(C=C(C#N)C#N)CCC1C (stereo unspecified) .
NO

// param item: CC(NC(=O)C(NC(=O)C(NC(=O)C(F)(F)F)C(C)C)C(C)C)C(=O)Oc1c(Cl)c(Cl)c(Cl)c(Cl)c1Cl (stereo unspecified) ; yields the recorded call
NO

// outcome(item) with item = Cc1n[nH]c(=O)n1-c1cccnc1
NO

I would be grateful if you could indicate the recorded call for CCOC(=O)C(CS)NC(=O)CCCCCCCC(=O)O (stereo unspecified) .
NO
